Field: IC50. Provide a value for each of the compounds that follow.
Target: human CB1 receptor (Homo sapiens, UniProt P21554)
Construct: host or cells: CHO-RD-HGA16 cells (CHO cells overexpressing promiscuous Galpha16)
Sequence (P21554 whole entry): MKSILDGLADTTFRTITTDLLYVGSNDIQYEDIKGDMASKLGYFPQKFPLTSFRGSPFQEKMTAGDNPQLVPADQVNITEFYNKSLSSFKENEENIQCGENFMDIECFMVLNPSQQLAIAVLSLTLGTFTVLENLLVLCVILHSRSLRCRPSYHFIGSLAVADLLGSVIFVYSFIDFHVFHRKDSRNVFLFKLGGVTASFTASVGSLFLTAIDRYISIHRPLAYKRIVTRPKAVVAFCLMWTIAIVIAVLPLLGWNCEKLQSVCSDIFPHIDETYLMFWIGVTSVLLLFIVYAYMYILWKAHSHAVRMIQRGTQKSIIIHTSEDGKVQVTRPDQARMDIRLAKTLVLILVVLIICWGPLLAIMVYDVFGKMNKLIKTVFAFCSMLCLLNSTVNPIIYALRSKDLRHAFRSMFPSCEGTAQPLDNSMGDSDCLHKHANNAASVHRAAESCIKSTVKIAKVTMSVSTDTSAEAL
Experiment: CB1 calcium mobilization assay (antagonist mode, against EC80 of CP55,940)
Assay type: cell-based
Conditions: Table 1; against EC80 (100 nM) of CP55,940; mean ± S.E.M.; read-out: CB1 calcium assay IC50

Prompt: Specify IC50 for O=C(Nc1ccc(Cl)cc1)Nc1cccc(-c2ccccc2)c1 and stop.
Completion: 32 nM

Prompt: Tell us which IC50 value is on record for O=C(Nc1ccc(Cl)cc1)Nc1cccc(-c2ccc3c(c2)Cc2ccccc2-3)c1
Completion: 1260 nM

Prompt: Tell me its IC50 given O=C(Nc1ccc(Cl)cc1)Nc1cccc(N2CCC(F)(F)CC2)c1 as the entry.
Completion: 92 nM

Prompt: State its IC50: O=C(Nc1ccc(Cl)cc1)Nc1cccc(-c2ccncc2)c1
Completion: 178 nM

Prompt: Supply reported IC50 belonging to this compound: O=C(Nc1ccc(Cl)cc1)Nc1cccc(-c2ccsc2)c1
Completion: 36 nM

Prompt: Provide one value: measured IC50 of Cc1ccc(-c2cccc(NC(=O)Nc3ccc(Cl)cc3)c2)s1
Completion: 42 nM

Prompt: Retrieve IC50 measured for O=C(Nc1ccc(Cl)cc1)Nc1cccc(N2CCC2)c1 and print it.
Completion: 35 nM

Prompt: Item O=C(Nc1ccc(Cl)cc1)Nc1cccc(N2CC3(COC3)C2)c1 : provide IC50
Completion: 792 nM

Prompt: Output measured IC50 for this item: O=C(Nc1ccc(Cl)cc1)Nc1cccc(N2CCOCC2)c1
Completion: 360 nM

Prompt: Item O=C(Nc1ccc(Cl)cc1)Nc1cccc(-c2ccc(-c3ccccc3)cc2)c1 : provide IC50
Completion: 1340 nM

Prompt: Give IC50 for the following compound: O=C(Nc1ccc(Cl)cc1)Nc1cccc(CN2CCCC2)c1
Completion: > 10000 nM

Prompt: Note down IC50 recorded for CC(C)(C)c1cc(-c2cccc(NC(=O)Nc3ccc(Cl)cc3)c2)cc(C(C)(C)C)c1
Completion: 460 nM

Prompt: Answer with the recorded IC50 for the compound listed here: O=C(Nc1ccc(Cl)cc1)Nc1cccc(-c2cncnc2)c1
Completion: 290 nM

Prompt: Could you please provide reported IC50 for O=C(Nc1ccc(Cl)cc1)Nc1cccc(OC2CCCC2)c1 ? Thanks!
Completion: 277 nM

Prompt: Please look at this compound and report its IC50: O=C(Nc1ccc(Cl)cc1)Nc1cccc(-c2c(Cl)cccc2Cl)c1
Completion: 338 nM

Prompt: Retrieve IC50 measured for O=C(Nc1ccc(Cl)cc1)Nc1cccc(-c2ccoc2)c1 and print it.
Completion: 41 nM

Prompt: Please report IC50 for the following compound: CN(C)c1cccc(NC(=O)Nc2ccc(Cl)cc2)c1
Completion: 113 nM

Prompt: Name the recorded IC50 of the item COc1cccc(-c2cccc(NC(=O)Nc3ccc(Cl)cc3)c2)c1 in your answer.
Completion: 81 nM

Prompt: Please give measured IC50 of the following entry: O=C(Nc1ccc(Cl)cc1)Nc1cccc(-c2ccccn2)c1
Completion: 47 nM

====

Target: human CB1 receptor (Homo sapiens)
Construct: host or cells: CHO-RD-HGA16 cells (CHO cells overexpressing promiscuous Galpha16)
Assay: CB1 calcium mobilization assay, agonist screen
Assay type: cell-based
Details: Table 1; 10,000 nM final concentration; mean ± SD
readout_name: CB1 calcium assay Agonist screen (% CP55, 940 Emax)

Prompt: Please report CB1 calcium assay Agonist screen (% CP55, 940 Emax) for the following molecule: O=C(Nc1ccc(Cl)cc1)Nc1cccc(-c2ccc3c(c2)Cc2ccccc2-3)c1 [Compound 45]
Completion: −0.1 ± 0.1 % CP55, 940 Emax

Prompt: Find the measured CB1 calcium assay Agonist screen (% CP55, 940 Emax) of Cc1ccc(-c2cccc(NC(=O)Nc3ccc(Cl)cc3)c2)s1 [Compound 50] and report it.
Completion: 4.6 ± 1.4 % CP55, 940 Emax

Prompt: Identify the reported CB1 calcium assay Agonist screen (% CP55, 940 Emax) for the following entry. O=C(Nc1ccc(Cl)cc1)Nc1cccc(-c2ccsc2)c1 [Compound 47]
Completion: 28.9 ± 0.6 % CP55, 940 Emax

Prompt: Identify CB1 calcium assay Agonist screen (% CP55, 940 Emax) associated with the molecule CCN(CC)c1cccc(NC(=O)Nc2ccc(Cl)cc2)c1 [Compound 86]
Completion: 20.9 ± 0.2 % CP55, 940 Emax

Prompt: Give me measured CB1 calcium assay Agonist screen (% CP55, 940 Emax), please, for this molecule: Cn1cccc1-c1cccc(NC(=O)Nc2ccc(Cl)cc2)c1 [Compound 68]
Completion: 3.4 ± 2.9 % CP55, 940 Emax

Prompt: Identify CB1 calcium assay Agonist screen (% CP55, 940 Emax) associated with the molecule O=C(Nc1ccc(Cl)cc1)Nc1cccc(-c2cscn2)c1 [Compound 52]
Completion: 8.6 ± 4.4 % CP55, 940 Emax

Prompt: Consider the molecule O=C(Nc1ccc(Cl)cc1)Nc1cccc(-c2cccnc2)c1 [Compound 19] . State its measured CB1 calcium assay Agonist screen (% CP55, 940 Emax).
Completion: 34.2 ± 9.3 % CP55, 940 Emax

Prompt: # return recorded CB1 calcium assay Agonist screen (% CP55, 940 Emax) for input O=C(Nc1ccc(Cl)cc1)Nc1cccc(-c2ccc3occc3c2)c1 [Compound 41]
Completion: 0.2 ± 1.0 % CP55, 940 Emax

Prompt: Consider the molecule O=C(Nc1ccc(Cl)cc1)Nc1cccc(-c2cccc(N3CCCC3)n2)c1 [Compound B, reference compound] and give its recorded CB1 calcium assay Agonist screen (% CP55, 940 Emax).
Completion: 28.2 ± 4.8 % CP55, 940 Emax

Prompt: Retrieve CB1 calcium assay Agonist screen (% CP55, 940 Emax) measured for O=C(Nc1ccc(Cl)cc1)Nc1cccc(-c2c(Cl)cccc2Cl)c1 [Compound 33] and print it.
Completion: 17.2 ± 3.1 % CP55, 940 Emax

Prompt: Recall and state the measured CB1 calcium assay Agonist screen (% CP55, 940 Emax) for O=C(Nc1ccc(Cl)cc1)Nc1cccc(N2CCOCC2)c1 [Compound 77] .
Completion: 12.4 ± 1.8 % CP55, 940 Emax

Prompt: State its CB1 calcium assay Agonist screen (% CP55, 940 Emax) for this molecule: Cc1cc(-c2cccc(NC(=O)Nc3ccc(Cl)cc3)c2)cs1 [Compound 49]
Completion: 3.7 ± 1.7 % CP55, 940 Emax

Prompt: Supply reported CB1 calcium assay Agonist screen (% CP55, 940 Emax) belonging to this molecule: O=C(Nc1ccc(Cl)cc1)Nc1cccc(-c2ccc3c(c2)OCO3)c1 [Compound 26]
Completion: 9.8 ± 3.5 % CP55, 940 Emax

Prompt: Annotate the molecule CC(C)(C)c1ccc(-c2cccc(NC(=O)Nc3ccc(Cl)cc3)c2)cc1 [Compound 36] with its measured CB1 calcium assay Agonist screen (% CP55, 940 Emax).
Completion: 4.0 ± 1.0 % CP55, 940 Emax

Prompt: Provide measured CB1 calcium assay Agonist screen (% CP55, 940 Emax) value, entry: O=C(Nc1ccc(Cl)cc1)Nc1cccc(-c2cc(Cl)cc(Cl)c2)c1 [Compound 31]
Completion: 15.5 ± 2.4 % CP55, 940 Emax

Prompt: Supply recorded CB1 calcium assay Agonist screen (% CP55, 940 Emax) for COc1cccc(NC(=O)Nc2ccc(Cl)cc2)c1 [Compound 91] here.
Completion: 13.6 ± 2.4 % CP55, 940 Emax

Prompt: In one line, give reported CB1 calcium assay Agonist screen (% CP55, 940 Emax) of the entry O=C(Nc1ccc(Cl)cc1)Nc1cccc(N2CCCC2)c1 [Compound 78] .
Completion: 0.6 ± 0.5 % CP55, 940 Emax

Prompt: Tell me its CB1 calcium assay Agonist screen (% CP55, 940 Emax) given O=C(Nc1ccc(Cl)cc1)Nc1cccc(-c2ccc[nH]2)c1 [Compound 65] as the entry.
Completion: 13.7 ± 0.1 % CP55, 940 Emax

Prompt: Give the value of CB1 calcium assay Agonist screen (% CP55, 940 Emax) reported for the following: O=C(Nc1ccc(Cl)cc1)Nc1cccc(-c2cncs2)c1 [Compound 51]
Completion: 8.1 ± 3.1 % CP55, 940 Emax

====

Molecular target: CB1 receptor (Mus musculus)
Sequence (P47746 whole entry): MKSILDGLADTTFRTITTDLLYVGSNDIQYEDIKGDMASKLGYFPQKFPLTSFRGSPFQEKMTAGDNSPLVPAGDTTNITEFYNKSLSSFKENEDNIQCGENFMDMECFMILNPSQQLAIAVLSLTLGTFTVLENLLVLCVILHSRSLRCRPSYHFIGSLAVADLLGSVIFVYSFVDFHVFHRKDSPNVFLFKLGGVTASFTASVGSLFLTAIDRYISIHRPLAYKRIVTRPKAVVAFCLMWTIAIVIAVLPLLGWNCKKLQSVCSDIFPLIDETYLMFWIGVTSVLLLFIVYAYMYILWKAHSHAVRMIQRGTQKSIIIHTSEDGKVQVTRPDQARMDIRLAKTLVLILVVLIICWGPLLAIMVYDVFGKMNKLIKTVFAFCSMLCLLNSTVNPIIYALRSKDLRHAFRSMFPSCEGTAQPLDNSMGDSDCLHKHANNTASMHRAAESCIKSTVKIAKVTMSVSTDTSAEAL
Experiment: [35S]GTP-γ-S binding assay in mouse cerebellar membranes, CP55,940-stimulated
Conditions: CP55,940 (100 nM) stimulation, mean (95% confidence interval)
Assignment: determine reported pIC50 for the given molecules.
For clarity, pIC50 is expressed as the negative log10 of concentration in mol/L.

Prompt: Give pIC50 for O=C(Nc1ccc(Cl)cc1)Nc1cccc(-c2ccc3ccccc3c2)c1 tested on CB1 receptor (Mus musculus).
Completion: 5.82

Prompt: Write pIC50 of Cn1cccc1-c1cccc(NC(=O)Nc2ccc(Cl)cc2)c1 ; system used: CB1 receptor (Mus musculus)
Completion: 6.18

Prompt: Name the value of pIC50 reported for O=C(Nc1ccc(Cl)cc1)Nc1cccc(-c2ccccc2)c1 when tested on CB1 receptor (Mus musculus).
Completion: 6.36
